- measurement-target: kappa opioid receptor (OPRK1) (Homo sapiens (Human), UniProt P41145)
- Sequence (P41145 whole entry): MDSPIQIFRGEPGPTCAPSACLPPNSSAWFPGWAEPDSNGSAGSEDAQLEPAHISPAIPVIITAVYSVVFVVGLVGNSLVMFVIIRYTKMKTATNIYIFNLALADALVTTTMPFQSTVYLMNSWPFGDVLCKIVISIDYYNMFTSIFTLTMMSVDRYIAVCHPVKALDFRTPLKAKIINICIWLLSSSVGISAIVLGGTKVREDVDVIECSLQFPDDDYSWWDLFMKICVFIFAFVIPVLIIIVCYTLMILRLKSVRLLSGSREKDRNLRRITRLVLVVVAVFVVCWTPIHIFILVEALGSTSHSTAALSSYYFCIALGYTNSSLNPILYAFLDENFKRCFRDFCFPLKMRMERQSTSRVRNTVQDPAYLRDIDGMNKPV
- assay-info: OPRK1 antagonist assay (b-arrestin-2-TEV / b-lactamase reporter, EC80 U-50488 challenge)
- assay-setup: OPRK1 antagonist assay vs EC80 U-50488
measured-property: IC50 (nM)
The answer is to be given in nM; state only the numeric part.

[
  {
    "compound": "Cc1ccc2nc(N3CCC(NC[C@H](C)O)CC3)c(-c3noc(C)n3)cc2c1",
    "measurement-target": "kappa opioid receptor (OPRK1) (Homo sapiens (Human), UniProt P41145)",
    "IC50 / nM": 422
  },
  {
    "compound": "Cc1cnc(N2CCC(NCC(C)C)CC2)c(-c2nc(C3CC3)no2)c1",
    "measurement-target": "kappa opioid receptor (OPRK1) (Homo sapiens (Human), UniProt P41145)",
    "IC50 / nM": 1280
  },
  {
    "compound": "Cc1ccc2nc(N3CCC(NC4CCCC4)CC3)c(-c3nc(C)no3)cc2c1",
    "measurement-target": "kappa opioid receptor (OPRK1) (Homo sapiens (Human), UniProt P41145)",
    "IC50 / nM": 2
  }
]

# return recorded IC50 for entry CO[C@@H]1CN(c2nc3ccccc3nc2-c2nc(C)no2)CC[C@@H]1NC1CCCCC1 161

# return recorded IC50 for entry Cc1ccc2nc(N3CCC(NC4CCOC4)CC3)c(-c3noc(C)n3)cc2c1 (stereo not shown) 22

# return recorded IC50 for entry Cc1cc(-c2nc(C3CC3)no2)c(N2CCC(NC3CCCCC3)CC2)nn1 24

# return recorded IC50 for entry Cc1ccc2nc(N3CCC(NC4CCCCCC4)CC3)c(-c3noc(C)n3)cc2c1 3

# return recorded IC50 for entry Cc1cc(C)c2nc(N3CCC(NCC(C)C)CC3)c(-c3nc(C)no3)cc2c1 18

# return recorded IC50 for entry Cc1ccc2nc(N3CCC(NC4CCCCC4CO)CC3)c(-c3nc(C)no3)cc2c1 (stereo not shown) 7

# return recorded IC50 for entry CCc1cnc(N2CCC(NC3CCCCC3)C(OC)C2)c(-c2nc(C)no2)c1 (stereo not shown) 525

# return recorded IC50 for entry CCc1noc(-c2cc(C)cnc2N2CCC(NC3CCCCC3)C(OC)C2)n1 (stereo not shown) 105

Ref: patent US9682966B2
